What % inhibition Apol 40' was measured for each of the following?
molecular target: P. falciparum apicoplast DNA polymerase (Pf-apPOL) (Plasmodium falciparum, UniProt Q8ILY1); assay: Fluorescence-based high-throughput DNA polymerase assay (molecular beacon), primary screen and dose-response; format: biochemical; settings: DRC-2; 40'; concentration 20;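 for % inhibition Apol 40': compound concentration given in µM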
Sequence (Q8ILY1 entry or part of it): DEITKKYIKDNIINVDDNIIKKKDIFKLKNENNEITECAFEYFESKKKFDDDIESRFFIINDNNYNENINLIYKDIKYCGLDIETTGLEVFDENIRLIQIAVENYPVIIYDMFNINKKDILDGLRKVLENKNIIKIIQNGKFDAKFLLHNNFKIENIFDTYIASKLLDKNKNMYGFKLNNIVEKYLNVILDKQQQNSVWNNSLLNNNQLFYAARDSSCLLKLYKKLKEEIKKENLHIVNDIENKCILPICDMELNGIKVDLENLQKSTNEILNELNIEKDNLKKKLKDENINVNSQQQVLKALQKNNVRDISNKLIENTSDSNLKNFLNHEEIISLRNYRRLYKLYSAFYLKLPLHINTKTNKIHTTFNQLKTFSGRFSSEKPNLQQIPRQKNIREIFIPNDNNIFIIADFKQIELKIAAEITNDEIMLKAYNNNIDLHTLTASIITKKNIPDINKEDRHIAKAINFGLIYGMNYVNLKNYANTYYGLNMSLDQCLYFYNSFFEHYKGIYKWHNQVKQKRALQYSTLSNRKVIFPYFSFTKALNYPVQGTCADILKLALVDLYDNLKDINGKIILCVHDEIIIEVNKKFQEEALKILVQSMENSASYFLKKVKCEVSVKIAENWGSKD

Study these solved cases before continuing.
// fetch % inhibition Apol 40' given entry Cc1ccc(NC(=O)C2CCN(C(=O)c3cc4ccsc4[nH]3)CC2)c(Br)c1 62%

// fetch % inhibition Apol 40' given entry COc1ccc(C=C2Oc3c(ccc4c3CN(Cc3ccco3)CO4)C2=O)c(OC)c1 49%

// fetch % inhibition Apol 40' given entry Cc1cccc2c(C(=O)NC(C)C)cc(N(C)C)nc12 43%

Moving on to the next compound.
// fetch % inhibition Apol 40' given entry Cc1cc(C)nc(Nc2nc(CC(=O)Nc3nc(-c4ccco4)cs3)cs2)n1 59%

====

Biological target: P. falciparum apicoplast DNA polymerase (Pf-apPOL) (Plasmodium falciparum)
Test: Fluorescence-based high-throughput DNA polymerase assay (molecular beacon), primary screen and dose-response
Type: biochemical
Conditions: DRC-2; concentration 40; 5'
From the text: The HT assay employs a molecular beacon, a stem-loop DNA template with a Cy3 dye and the Black Hole Quencher on the 3′ and 5′ ends of the DNA, respectively. Pf-apPOL concentration is based on a calculated absorptivity of ε280 = 56750 M^−1 cm^−1. […] To identify apPOL inhibitors we utilised our previously developed high-throughput DNA polymerase assay. […] The assay accurately recapitulates the kinetic behaviour of apPOL, as measured through more conventional low-throughput gel-based assays. […]
What % inhibition Apo pol 5' was measured for each of the following?
One number for each entry, in %.

Study these solved cases before continuing.
// fetch % inhibition Apo pol 5' given entry CCc1ccccc1NC(=O)c1ccc(-c2ncccc2NC(C)=O)cc1 50

// fetch % inhibition Apo pol 5' given entry COc1ccc(-c2occ(C(=O)O)c2C(=O)O)cc1 50

I have 6 molecules here; please give me % inhibition Apo pol 5' for each one.
1. Nc1ncnc(NC2CCCCC2)c1[N+](=O)[O-]
2. Cc1cc(C)nc(Nc2nc(CC(=O)Nc3nc(-c4ccco4)cs3)cs2)n1
3. Oc1cccnc1/N=C/c1cc(I)cc(I)c1O
4. COc1ccc(C=C2Oc3c(ccc4c3CN(Cc3ccco3)CO4)C2=O)c(OC)c1
5. CCCN1COc2ccc3c(=O)c(-c4ccccc4)coc3c2C1
6. O=C(Cc1cccs1)N1CCN(c2nc(CN3CCOCC3)cs2)CC1

1. 50
2. 41
3. 63
4. 52
5. 52
6. 46

// fetch % inhibition Apo pol 5' given entry O=C(O)c1cc([N+](=O)[O-])c(N2CCN(c3cccc(C(F)(F)F)c3)CC2)c([N+](=O)[O-])c1 54

====

biological target: P. falciparum apicoplast DNA polymerase (Pf-apPOL) (Plasmodium falciparum, UniProt Q8ILY1); experiment: Fluorescence-based high-throughput DNA polymerase assay (molecular beacon), primary screen and dose-response; assay type: biochemical; settings: DRC-2; concentration 5; 5'
metric: % inhibition Apo pol 5' (%)
Give bare numbers, in %.

// fetch % inhibition Apo pol 5' given entry O=C(O)c1nc(-c2ccccc2)nc2c1OCO2 [Molecule 45, OC(=O)c1nc(nc2c1OCO2)c1ccccc1] 24

// fetch % inhibition Apo pol 5' given entry O=C(Cn1ccc2c(=O)[nH]ccc21)Nc1ccccc1Cl [Molecule 19, O=C(Cn1ccc2c1cc[nH]c2=O)Nc1ccccc1Cl] 30

// fetch % inhibition Apo pol 5' given entry Cc1ccnc(NS(=O)(=O)c2ccc(-n3cccc3)cc2)n1 [KU0034899] 23

// fetch % inhibition Apo pol 5' given entry COc1ccc(C=C2Oc3c(ccc4c3CN(Cc3ccco3)CO4)C2=O)c(OC)c1 [KU0199404] 12

// fetch % inhibition Apo pol 5' given entry O=C(Cc1cccs1)N1CCN(c2nc(CN3CCOCC3)cs2)CC1 [Molecule 35] 19

// fetch % inhibition Apo pol 5' given entry CCCN1COc2ccc3c(=O)c(-c4ccccc4)coc3c2C1 [KU0199556] 10

// fetch % inhibition Apo pol 5' given entry O=C1c2ccccc2C(=O)c2c1oc1c3c(ccc21)OCN(C1CCCC1)C3 [KU0064306] 23

---
// fetch % inhibition Apo pol 5' given entry COc1ccc(NC(=O)Cn2nc3c(cc2=O)CCC3)cc1Cl [Molecule 4, COc1ccc(cc1Cl)NC(=O)Cn1nc2CCCc2cc1=O] 46

====

What % inhibition T4 10' 80 was measured for each of the following?
Molecular target: bacteriophage T4 DNA polymerase (Enterobacteria phage T4)
Construct: made in house
Sequence (P04415 whole entry): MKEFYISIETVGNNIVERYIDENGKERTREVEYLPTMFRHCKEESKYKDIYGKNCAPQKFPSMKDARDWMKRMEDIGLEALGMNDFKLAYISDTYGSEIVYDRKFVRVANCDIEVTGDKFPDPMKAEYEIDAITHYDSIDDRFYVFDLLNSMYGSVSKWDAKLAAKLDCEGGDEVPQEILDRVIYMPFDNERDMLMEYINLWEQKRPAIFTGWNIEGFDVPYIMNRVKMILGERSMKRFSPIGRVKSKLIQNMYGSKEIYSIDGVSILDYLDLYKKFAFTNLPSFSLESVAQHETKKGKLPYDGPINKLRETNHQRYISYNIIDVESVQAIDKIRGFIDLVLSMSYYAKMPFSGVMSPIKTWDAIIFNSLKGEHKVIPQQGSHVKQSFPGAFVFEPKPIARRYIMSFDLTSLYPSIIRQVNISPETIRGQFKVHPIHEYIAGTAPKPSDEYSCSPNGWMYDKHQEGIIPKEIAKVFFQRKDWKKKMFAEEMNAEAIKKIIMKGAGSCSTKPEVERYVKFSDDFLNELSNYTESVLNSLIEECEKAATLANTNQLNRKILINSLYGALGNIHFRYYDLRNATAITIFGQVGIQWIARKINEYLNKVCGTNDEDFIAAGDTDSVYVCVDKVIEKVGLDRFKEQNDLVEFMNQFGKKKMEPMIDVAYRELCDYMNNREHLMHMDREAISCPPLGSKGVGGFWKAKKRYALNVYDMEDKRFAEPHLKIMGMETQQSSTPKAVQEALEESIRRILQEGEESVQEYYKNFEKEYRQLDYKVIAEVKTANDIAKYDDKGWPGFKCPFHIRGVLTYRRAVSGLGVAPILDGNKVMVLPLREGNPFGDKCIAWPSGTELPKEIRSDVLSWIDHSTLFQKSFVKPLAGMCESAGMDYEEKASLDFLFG
Assay: Counter-screen against bacteriophage T4 DNA polymerase
Format: biochemical
Details: DRC-1; read at 10'; concentration 80
Description: Codon-optimized, exonuclease-deficient Pf-apPOL was overexpressed in E. coli BL21 (DE3) and purified as described. The protein was dialysed against two, 1-liter changes of 20 mM Tris-HCl (pH 8.0), 400 mM NaCl, and 20% glycerol. […] Each compound was tested in a dose-response format to determine IC50 values. […] T4 DNA polymerase can be produced in large quantities, and is in the same family (B-family) as the replicative human DNA polymerases (α, δ, and ε)[20].
One number for each entry, in %.

Fill: % inhibition T4 10' 80 (bacteriophage T4 DNA polymerase (Enterobacteria phage T4)) for this compound CC(=O)OCC1=C(C(=O)[O-])N2C(=O)[C@@H](NC(=O)Cc3cccs3)[C@H]2SC1.[Na+] [Molecule 73] 43.1529

Fill: % inhibition T4 10' 80 (bacteriophage T4 DNA polymerase (Enterobacteria phage T4)) for this compound CC(=O)Nc1cc(C(=O)c2cccs2)nn(-c2ccc(Cl)cc2)c1=O [KU0267905] 21.8297

Fill: % inhibition T4 10' 80 (bacteriophage T4 DNA polymerase (Enterobacteria phage T4)) for this compound Cc1cc2[nH]c(C(=O)Nc3ccc(F)cc3)c(CN3CCOCC3)c2s1 [Molecule 60] 40.6852

Moving on to the next compound.
Fill: % inhibition T4 10' 80 (bacteriophage T4 DNA polymerase (Enterobacteria phage T4)) for this compound Cn1nc(-c2nnc(-c3ccccc3F)o2)c2c1CCN(C(=O)c1ccccc1Cl)C2 [Molecule 34] 31

====

What % inhibition Apo pol 10' was measured for each of the following?
Molecular target: P. falciparum apicoplast DNA polymerase (Pf-apPOL) (Plasmodium falciparum, UniProt Q8ILY1)
Assay: Fluorescence-based high-throughput DNA polymerase assay (molecular beacon), primary screen and dose-response
Type: biochemical
Settings: DRC-1; 10'; concentration 20
Description: The HT assay employs a molecular beacon, a stem-loop DNA template with a Cy3 dye and the Black Hole Quencher on the 3′ and 5′ ends of the DNA, respectively. Pf-apPOL concentration is based on a calculated absorptivity of ε280 = 56750 M^−1 cm^−1. […] To identify apPOL inhibitors we utilised our previously developed high-throughput DNA polymerase assay. […] The assay accurately recapitulates the kinetic behaviour of apPOL, as measured through more conventional low-throughput gel-based assays. […]
Numbers only, in %.

Study these solved cases before continuing.
// fetch % inhibition Apo pol 10' given entry O=C(NNC(=O)C(F)(F)Sc1ccccc1)c1ccsc1 [Molecule 68, O=C(C(Sc1ccccc1)(F)F)NNC(=O)c1cscc1] 47.6682

// fetch % inhibition Apo pol 10' given entry CCCCSc1nnc2c(n1)OC(c1ccc([N+](=O)[O-])o1)Nc1ccccc1-2 (stereo not drawn) 79.0403

Moving on to the next molecule.
// fetch % inhibition Apo pol 10' given entry NS(=O)(=O)c1ccc(NC(=O)c2ccc(N3C(=O)CCC3=O)cc2)cc1 51.7902

====

What % inhibition ApPOL 90' was measured for each of the following?
target: P. falciparum apicoplast DNA polymerase (Pf-apPOL) (Plasmodium falciparum, UniProt Q8ILY1); assay: Fluorescence-based high-throughput DNA polymerase assay (molecular beacon), primary screen and dose-response; assay type: biochemical; settings: DRC-2, 90', concentration 5;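 for % inhibition ApPOL 90': test concentration in µM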
Answers are plain numbers, in %.

I have 6 compounds here; please give me % inhibition ApPOL 90' for each one.
1. CSC(C)C(=O)C=CN(C)C (centres unmarked) [Molecule 71, CSC(C(=O)C=CN(C)C)C]
2. O=C(c1c[nH]c2ncccc12)N1CCCCCC1 [Molecule 51, O=C(c1c[nH]c2c1cccn2)N1CCCCCC1]
3. O=C(Nc1nnc(-c2cccs2)o1)c1ccc([N+](=O)[O-])o1 [Molecule 74]
4. COc1cc(/C=C2\S/C(=N/C(C)=O)NC2=O)cc(Br)c1OCC(=O)O [KU0057841]
5. O=C(O)C(=O)Nc1nc(-c2ccc3c(c2)OCCO3)cs1 [Molecule 82, OC(=O)C(=O)Nc1scc(n1)c1ccc2c(c1)OCCO2]
6. Cn1nc(C(=O)N2CCc3c(nc4cc(-c5ccccc5)[nH]n4c3=O)C2)c2ccccc21 [Molecule 18]

6
3.55
12
2.28
14
23

I have 7 compounds here; please give me % inhibition ApPOL 90' for each one.
1. Cc1ncc(CSc2nc(C(C)(C)C)cs2)c(CO)c1O [KU0264007]
2. O=C(Nc1nnc(-c2ccno2)o1)c1ccc2ncsc2c1 [Molecule 62, O=C(c1ccc2c(c1)scn2)Nc1nnc(o1)c1ccno1]
3. CSCCC(C)(O)CNC(=O)C1CC1 (centres unmarked) [KU0200150]
4. O=c1cc(-c2ccccc2)oc2c(O)c(O)ccc12 [Molecule 84, Oc1ccc2c(c1O)oc(cc2=O)c1ccccc1]
5. CN(C)C=C1SCc2ccccc2C1=O [Molecule 77, CN(C=C1SCc2c(C1=O)cccc2)C]
6. COc1ccccc1CCC(=O)N1CCc2c(nc3cc(-c4ccccc4)[nH]n3c2=O)C1 [Molecule 7]
7. O=C(Nc1nnc(-c2ccno2)o1)c1ccc2c(c1)OCO2 [KU0171343]

1: 2.55; 2: 4; 3: 11; 4: 10; 5: 1; 6: 28; 7: -8

I have 4 compounds here; please give me % inhibition ApPOL 90' for each one.
1. O=C(NNC(=O)C(F)(F)Sc1ccccc1)c1ccsc1 [Molecule 68, O=C(C(Sc1ccccc1)(F)F)NNC(=O)c1cscc1]
2. CS(=O)(=O)c1cccc(C(=O)Nc2nnc(-c3ccno3)o2)c1 [KU0171319]
3. O=C(O)CC1SC(c2ccc3c(c2)OCO3)=NC1=O (centres unmarked) [Molecule 69, OC(=O)CC1SC(=NC1=O)c1ccc2c(c1)OCO2]
4. CN1CC(=Cc2ccco2)C(=O)C(=Cc2ccco2)C1 [Molecule 65, CN1CC(=Cc2ccco2)C(=O)C(=Cc2ccco2)C1]

[2.82, 0.372, 4, 21]
